- tgt: NPC1L1 (rNPC1L1) (Rattus norvegicus)
- Construct: rat NPC1L1 (GenBank AY437867), membranes from stably expressing HEK293 cells
- experimental_details: competitive radioligand binding, [3H]ezetimibe glucuronide, HEK293/rNPC1L1 membranes (two-site fit; low-affinity site […])
readout_kind: pIC50
Answers are plain numbers, as −log10 of the molar value.

I have this compound here, CC(C)=CCCC(CO)C1CC(O)C2(C)C3=C(CCC12C)C1(C)CCC(=O)C(C)(C)C1CC3 (stereo not shown) [fomiroid A, 15, 21-dihydroxylanosta-8, 24-dien-3-one] , and I need its recorded pIC50.
5.32
